System: A2780
Assay: Inhibition of A2780 cell growth
Type: functional, cell-based
Settings: Homo sapiens
pIC50: −log10 of the molar value.
Listed here are compounds together with their documented pIC50.

{"columns": ["compound", "censoring-qualifier", "pIC50"],
 "data": [
  ["O=C1c2c(O)ccc(O)c2C(=O)c2c(NCC[N+]3([O-])CCCCC3CCl)ccc(NCC[N+]3([O-])CCCCC3CCl)c21 (stereo not given)", "<", 6.00],
  ["O=C1c2c(O)ccc(O)c2C(=O)c2c(NCCN3CCCC(CCl)C3)ccc(NCCN3CCCC(CCl)C3)c21 (stereo not given)", "<", 6.00],
  ["CN(C)CCNc1ccc(NCCN2CCC(Cl)CC2)c2c1C(=O)c1c(O)ccc(O)c1C2=O", "=", 6.24],
  ["CN(C)CCNc1ccc(NCCN2CCC(Cl)C2)c2c1C(=O)c1c(O)ccc(O)c1C2=O (stereo not given)", "=", 7.17],
  ["CN(C)CCNc1ccc(NCCN2C(CCl)CCCC2CCl)c2c1C(=O)c1c(O)ccc(O)c1C2=O (stereo not given)", "=", 7.62],
  ["O=C1c2ccccc2C(=O)c2c(NCCN3CCCC3CO)cccc21 (stereo not given)", "<", 6.00],
  ["CN(C)CCNc1ccc(NCCN2CCCC2CCl)c2c1C(=O)c1c(O)ccc(O)c1C2=O (stereo not given)", "=", 7.54],
  ["O=C1c2ccccc2C(=O)c2c(NCCN3CCCC3CCl)cccc21 (stereo not given)", "<", 6.00],
  ["COc1cccc2c1C(=O)c1c(O)c3c(c(O)c1C2=O)C[C@@](O)(C(=O)CO)C[C@@H]3O[C@H]1C[C@H](N)[C@H](O)[C@H](C)O1", "=", 8.12],
  ["O=C1c2c(O)ccc(O)c2C(=O)c2c(NCCN3CCCCC3CO)ccc(NCCN3CCCCC3CO)c21 (stereo not given)", "=", 6.13]
]}
